# credit: paper PMC6356585

# Tested on: C6/36 cells
# Type: cell-based, Ae. albopictus
# experimental setup: 10 µM compound, 96 h, CellTiter-Glo; ± SEM, three independent trials
Where a name gives a salt, the structure may show the parent alone.
property label: C6/36 Viability

Req: So what's the measured C6/36 Viability for this one? C=CC(C)(C)c1cc(/C=C/C(=O)c2ccc(O)cc2)c(OC)cc1O
Resp: 43 ± 2% of untreated control

Req: So what's the measured C6/36 Viability for this one? O[C@@H](CS)[C@@H](O)CS
Resp: 79 ± 4.4% of untreated control

Req: So what's the measured C6/36 Viability for this one? CC/C(=C(\c1ccccc1)c1ccc(OCCN(C)C)cc1)c1ccccc1 [Tamoxifen citrate]
Resp: 32 ± 11.9% of untreated control

Req: So what's the measured C6/36 Viability for this one? CN[C@@H]1C[C@H]2O[C@@](C)([C@@H]1OC)n1c3ccccc3c3c4c(c5c6ccccc6n2c5c31)C(=O)NC4
Resp: 16 ± 5.3% of untreated control

Req: So what's the measured C6/36 Viability for this one? COc1cc(CNC(=O)CCCC/C=C/C(C)C)ccc1O
Resp: 66 ± 7.2% of untreated control

Req: So what's the measured C6/36 Viability for this one? CCN(CC)CCCC(C)Nc1ccnc2cc(Cl)ccc12 (stereo not drawn)
Resp: 81 ± 17.1% of untreated control

Req: So what's the measured C6/36 Viability for this one? O=c1cc(N2CCOCC2)oc2c(-c3ccccc3)cccc12
Resp: 97 ± 17.2% of untreated control

Req: So what's the measured C6/36 Viability for this one? C[C@H](CCC(=O)O)C[C@H](C)C[C@H](C)C(=O)/C=C(\O)[C@H](C)C[C@H](C)C/C=C/[C@@H](C)[C@@H](O)[C@@H](C)[C@@H](O)C[C@@H]1CC[C@@](C)([C@H]2CC[C@@](C)([C@@H](C)O)O2)O1
Resp: 1 ± 0.3% of untreated control

Req: So what's the measured C6/36 Viability for this one? Nc1ncnc2c1nc(Sc1ccc(Cl)cc1)n2[C@@H]1O[C@@H]2COP(=O)([O-])O[C@H]2[C@H]1O.[Na+]
Resp: 75 ± 3.7% of untreated control

Req: So what's the measured C6/36 Viability for this one? NS(=O)(=O)C#Cc1ccccc1
Resp: 72 ± 3.2% of untreated control

Req: So what's the measured C6/36 Viability for this one? Cn1cc(C2=C(c3ccc(Cl)cc3Cl)C(=O)NC2=O)c2ccccc21
Resp: 63 ± 3.6% of untreated control

Req: So what's the measured C6/36 Viability for this one? CC(C)CCC[C@@H](C)[C@H]1CC[C@H]2[C@@H]3C(=O)C=C4C[C@@H](O)CC[C@]4(C)[C@H]3CC[C@]12C
Resp: 36 ± 5.1% of untreated control

Req: So what's the measured C6/36 Viability for this one? O=C(Nc1ccc([N+](=O)[O-])cc1Cl)c1cc(Cl)ccc1O [Niclosamide]
Resp: 2 ± 0.3% of untreated control

Req: So what's the measured C6/36 Viability for this one? C[C@@H]1C[C@@H]([C@H](O)CC2CC(=O)NC(=O)C2)C(=O)[C@@H](C)C1 [Cycloheximide]
Resp: 24 ± 3.5% of untreated control

Req: So what's the measured C6/36 Viability for this one? C[C@H]1CC[C@@]2(OC1)O[C@H]1C[C@H]3[C@@H]4CC[C@@H]5C[C@@H](O[C@@H]6O[C@H](CO)[C@H](O)[C@H](O)[C@H]6O[C@@H]6O[C@H](CO)[C@@H](O)[C@H](O)[C@H]6O)CC[C@]5(C)[C@H]4CC[C@]3(C)[C@H]1[C@@H]2C
Resp: 67 ± 3.6% of untreated control
